Each entry below carries its reported pIC50.
- study system: GST-pRbABC/6×His-HPV16-E7CR2-3 complex (Homo sapiens)
- Construct: E7: E. coli BL21(DE3)
- Sequence (P06400 376-928, one chain of several): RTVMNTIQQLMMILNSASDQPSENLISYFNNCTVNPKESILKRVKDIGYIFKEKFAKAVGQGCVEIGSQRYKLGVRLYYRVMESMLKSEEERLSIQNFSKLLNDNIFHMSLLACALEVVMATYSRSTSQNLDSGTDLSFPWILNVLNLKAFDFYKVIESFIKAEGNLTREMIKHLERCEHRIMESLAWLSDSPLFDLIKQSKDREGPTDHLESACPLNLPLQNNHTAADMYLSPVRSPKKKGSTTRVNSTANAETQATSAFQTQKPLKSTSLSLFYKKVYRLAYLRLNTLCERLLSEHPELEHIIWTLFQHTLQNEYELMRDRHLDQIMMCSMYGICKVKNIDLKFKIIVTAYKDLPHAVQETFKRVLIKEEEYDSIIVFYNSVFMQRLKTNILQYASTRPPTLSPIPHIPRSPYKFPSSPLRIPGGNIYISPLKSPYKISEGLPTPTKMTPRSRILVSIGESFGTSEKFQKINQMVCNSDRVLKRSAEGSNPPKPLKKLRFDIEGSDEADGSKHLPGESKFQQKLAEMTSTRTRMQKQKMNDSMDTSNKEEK
- experimental protocol: ELISA: disruption of pRb/HPV16-E7 complex
- stated conditions: disruption of pRb/viral oncoprotein complex; 500 nM 16E7
- Description: An ELISA assay was utilized with modifications such that the amount of 6×His-HPV16-E7CR2-3 remaining bound to the partner protein on the plate could be measured. The compounds identified in Example 2 were purchased (Lankenau Institute for Medical Research) as powders. […] All compounds were solubilized in DMSO (50 mM) and diluted for use in the ELISA-based assay at a final DMSO concentration of less than 5%. […] The amount of E7 remaining was determined by adding a primary anti-His antibody. […]
pIC50: −log10 of the molar value.

>  <smiles string>
Cc1cccc(-n2sc(=O)n(C(C)C)c2=O)c1

>  <study system>
GST-pRbABC/6×His-HPV16-E7CR2-3 complex (Homo sapiens)

>  <pIC50>
5.49

$$$$
>  <smiles string>
Cc1ccccc1-n1sc(=O)n(C)c1=O

>  <study system>
GST-pRbABC/6×His-HPV16-E7CR2-3 complex (Homo sapiens)

>  <pIC50>
6.30

$$$$
>  <smiles string>
COn1c(=O)sn(-c2ccccc2C)c1=O

>  <study system>
GST-pRbABC/6×His-HPV16-E7CR2-3 complex (Homo sapiens)

>  <pIC50>
6.24

$$$$
>  <smiles string>
COc1ccc(-n2sc(=O)n(C)c2=O)cc1

>  <study system>
GST-pRbABC/6×His-HPV16-E7CR2-3 complex (Homo sapiens)

>  <pIC50>
6.40

$$$$
>  <smiles string>
COc1cccc(-n2sc(=O)n(C)c2=O)c1

>  <study system>
GST-pRbABC/6×His-HPV16-E7CR2-3 complex (Homo sapiens)

>  <pIC50>
6.54

$$$$
>  <smiles string>
Cc1cc(Cl)ccc1-n1sc(=O)n(C(C)C)c1=O

>  <study system>
GST-pRbABC/6×His-HPV16-E7CR2-3 complex (Homo sapiens)

>  <pIC50>
5.35

$$$$

----------
- study system: GST-pRbABC/E2F complex disrupted by 6×His-Ad5E1ACR1-3 (Homo sapiens)
- Construct: E2F1 and E1A: E. coli BL21(DE3)
- Sequence (P06400 376-928): as the sequence (P06400 376-928, one chain of several) above
- Sequence (Q01094 243-437 partner limits assumed): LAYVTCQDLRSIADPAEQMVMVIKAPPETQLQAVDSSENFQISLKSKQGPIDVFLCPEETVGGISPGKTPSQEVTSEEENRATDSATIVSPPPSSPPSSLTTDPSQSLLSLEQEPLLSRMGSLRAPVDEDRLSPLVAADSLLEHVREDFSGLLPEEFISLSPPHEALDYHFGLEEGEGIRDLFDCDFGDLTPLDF
- experimental protocol: ELISA: inhibition of adenovirus E1A-mediated disruption of pRb/E2F complexes
- stated conditions: E2F remaining bound to pRb; 100 nM E1A
pIC50: −log10 of the molar value.
readout label: pIC50

>  <smiles string>
Cc1ccccc1-n1sc(=O)n(C)c1=O

>  <study system>
GST-pRbABC/E2F complex disrupted by 6×His-Ad5E1ACR1-3 (Homo sapiens)

>  <readout label>
pIC50

>  <assay value>
6.62

$$$$
>  <smiles string>
COc1cccc(-n2sc(=O)n(C)c2=O)c1

>  <study system>
GST-pRbABC/E2F complex disrupted by 6×His-Ad5E1ACR1-3 (Homo sapiens)

>  <readout label>
pIC50

>  <assay value>
5.49

$$$$
>  <smiles string>
COn1c(=O)sn(-c2ccccc2C)c1=O

>  <study system>
GST-pRbABC/E2F complex disrupted by 6×His-Ad5E1ACR1-3 (Homo sapiens)

>  <readout label>
pIC50

>  <assay value>
6.19

$$$$
>  <smiles string>
Cc1ccccc1-n1sc(=O)n(C(C)C)c1=O

>  <study system>
GST-pRbABC/E2F complex disrupted by 6×His-Ad5E1ACR1-3 (Homo sapiens)

>  <readout label>
pIC50

>  <assay value>
5.55

$$$$
>  <smiles string>
Cc1cccc(-n2sc(=O)n(C(C)C)c2=O)c1

>  <study system>
GST-pRbABC/E2F complex disrupted by 6×His-Ad5E1ACR1-3 (Homo sapiens)

>  <readout label>
pIC50

>  <assay value>
5.96

$$$$
>  <smiles string>
Cc1cc(Cl)ccc1-n1sc(=O)n(C(C)C)c1=O

>  <study system>
GST-pRbABC/E2F complex disrupted by 6×His-Ad5E1ACR1-3 (Homo sapiens)

>  <readout label>
pIC50

>  <assay value>
5.89

$$$$
>  <smiles string>
COc1ccc(-n2sc(=O)n(C)c2=O)cc1

>  <study system>
GST-pRbABC/E2F complex disrupted by 6×His-Ad5E1ACR1-3 (Homo sapiens)

>  <readout label>
pIC50

>  <assay value>
5.77

$$$$
